- Species: Sus scrofa
- assay-name: The percent of compound protonated at pH 7.4 in purified H+/K+ -ATPase from hog stomach.
Field: label. Allowed values: class 1 (Protonated < 4%) or class 0 (Protonated >= 4%).

molecule | discrete-label
Cc1nc2c(OCc3ccccc3)cccn2c1N | class 0
Cc1nc2c3c(ccn2c1CC#N)CCC(c1ccccc1)O3 (racemic) | class 1
Cc1nc2c(C/C=C/c3ccccc3)cccn2c1CC#N | class 1
Cc1nc2c(CCc3ccccc3)cccn2c1CC#N | class 1
Cc1nc2c(OCc3ccccc3)nccn2c1N | class 1
Cc1nc2c(/C=C/Cc3ccccc3)cccn2c1N | class 0
Cc1nc2c(/C=C/Cc3ccccc3)cccn2c1CC#N | class 1
Cc1ccn2c(CC#N)c(C)nc2c1OCc1ccccc1 | class 1
Cc1nc2c(CCc3ccccc3)cccn2c1N | class 0

###

- assay-name: Compound was evaluated for the ability to inhibit H+/K+ -ATPase formation in rabbit gastric glands.
- Type: functional, tissue-based, Oryctolagus cuniculus, Stomach
value-kind: log10(IC50) (log10 of the value in uM l-1)

compound | log10(IC50)
Cc1nc2c(OCc3ccccc3)nccn2c1N | 0.91
Cc1nc2c(/C=C/Cc3ccccc3)cccn2c1N | 1.15
Cc1nc2c(OCc3ccccc3)cccn2c1N | -0.51
Cc1nc2c(CCc3ccccc3)cccn2c1CC#N | -0.89
Cc1nc2c3c(ccn2c1CC#N)CCC(c1ccccc1)O3 (racemic) | -1.19
Cc1ccn2c(CC#N)c(C)nc2c1OCc1ccccc1 | -0.40
Cc1nc2c(/C=C/Cc3ccccc3)cccn2c1CC#N | 0.58
Cc1nc2c(C/C=C/c3ccccc3)cccn2c1CC#N | 2.65
Cc1nc2c(CCc3ccccc3)cccn2c1N | 0.16

###

- assay-name: pKa value of the compound.
- Assay type: physicochemical
pKa values, listed per item

compound | pKa
Cc1nc2c(/C=C/c3ccccc3)cccn2c1C | 7.2
Cc1nc2c(C/C=C/c3ccccc3)cccn2c1CC#N | 6
Cc1nc2c(/C=C\c3ccccc3)cccn2c1C | 7.2
Cc1nc2c3c(ccn2c1CC#N)CCC(c1ccccc1)O3 (racemic) | 6
Cc1nc2c(OCc3ccccc3)nccn2c1N | 4.6
Cc1nc2c(/C=C/Cc3ccccc3)cccn2c1CC#N | 5.7
Cc1nc2c(OCc3ccccc3)cccn2c1CC#N | 5.5
